System: M14
assay-protocol: NCI tumour cell line growth inhibition, 48 h
Activity calls are given as the source filed them. Cut-off read from the data, not from the text of the source: active = GI50 up to about 1.1 µM and inactive = higher.
Labels: active, inactive

# molecule, label-class
measured = [
    ("Cc1cccc(NC(=O)C(=O)C(C(=O)c2ccccc2F)C2OC(=O)c3ccccc32)c1Cl (stereo not drawn)", "inactive"),
    ("CCOC(=O)C(C(=O)OCC)c1ccc([N+](=O)[O-])o1", "inactive"),
    ("CCn1cnnc1-c1nsc2ccccc12", "inactive"),
    ("COc1ccc2c(c1)c(=Cc1ccc(N(C)C)cc1)c1cc(-c3ccccc3)[n+](C)n12", "active"),
    ("COC(=O)c1ccccc1C1CN=NC12Cc1ccc(C)cc1C2=O (stereo not drawn)", "inactive"),
    ("CC(=O)Oc1c2oc3cc(O)c(O)cc3c2c(OC(C)=O)c2oc3cc(O)c(O)cc3c12 [POLYOZELLIN]", "inactive"),
    ("COc1cc(OCc2ccccc2)c2c(CCC(=O)O)cc(=O)oc2c1.COc1cc(OCc2ccccc2)cc2oc(=O)cc(CCC(=O)O)c12", "inactive"),
    ("CCOC(=O)c1c(N2CCCC2)[nH]c(=O)c(C(c2c(O)c(C(=O)OCC)c(N3CCCC3)[nH]c2=O)C(C)C)c1O", "inactive"),
    ("N#Cc1c2c(c(Nc3ccc(F)cc3)n3c1nc1ccccc13)CCCC2", "inactive"),
    ("COc1cc2c(cc1OC)C1=C(C=O)c3ccc(OC)c(OC)c3C(O)N1CC2 (stereo not drawn)", "inactive"),
    ("COc1cc(C2c3cc4c(cc3[C@@H](Nc3ccc(F)cc3)C3COC[C@H]23)OCO4)cc(OC)c1O (stereo partly drawn)", "inactive"),
    ("N#CC(c1ccc(O)cc1)N1CCN(C(C#N)c2ccc(O)cc2)CC1 (stereo not drawn)", "inactive"),
    ("Cc1ccc(/C=C/C(=O)C(C)(C)CN2CCCCC2)cc1", "inactive"),
]
